measured-on: human recombinant Yes [a.a. 2–543 (end)] (Homo sapiens, UniProt P07947)
Construct: human recombinant Yes [a.a; 2–543 (end)]; purchased BPS Bioscience 40488
Sequence (P07947 2-543): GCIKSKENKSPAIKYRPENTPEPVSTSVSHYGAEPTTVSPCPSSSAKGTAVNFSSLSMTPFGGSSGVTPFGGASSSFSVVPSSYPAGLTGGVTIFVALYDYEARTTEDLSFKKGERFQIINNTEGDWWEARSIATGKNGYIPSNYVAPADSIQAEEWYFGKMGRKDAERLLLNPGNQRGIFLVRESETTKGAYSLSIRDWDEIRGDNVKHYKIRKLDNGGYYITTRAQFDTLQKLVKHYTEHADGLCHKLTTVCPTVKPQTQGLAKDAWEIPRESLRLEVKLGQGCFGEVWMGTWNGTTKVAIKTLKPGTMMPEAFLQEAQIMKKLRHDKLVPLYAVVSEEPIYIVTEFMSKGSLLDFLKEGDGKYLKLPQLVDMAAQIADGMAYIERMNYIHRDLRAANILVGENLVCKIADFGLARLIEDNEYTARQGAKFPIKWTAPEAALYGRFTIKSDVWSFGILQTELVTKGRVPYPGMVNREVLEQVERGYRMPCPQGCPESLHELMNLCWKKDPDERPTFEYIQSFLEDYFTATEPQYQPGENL
assay-summary: ADP-Glo kinase assay, inhibition rates of Yes phosphorylation activity (first and second screening)
Assay type: biochemical
condition-set: first screening; mean of n = 4 wells; 10 μmol L−1 compound
measurement-label: First screening IR (inhibition rate) (%)

Consider the reported First screening IR (inhibition rate) for these compounds:
INSERT INTO measurements (compound, measurement_label, assay_value) VALUES
  ('CCC(CC)N(C)S(=O)(=O)c1ccc(S(N)(=O)=O)cc1 [Compound Z369246436]', 'First screening IR (inhibition rate)', -4),
  ('Cc1ccc(S(=O)(=O)C2CS(=O)(=O)CC2O)cc1 (centres unmarked) [Compound Z56757815]', 'First screening IR (inhibition rate)', -3),
  ('CNc1ccc(/C=C2/CC(C)Cc3c2nc2ccccc2c3C(=O)O)cc1[N+](=O)[O-] (centres unmarked) [Compound Z46108034]', 'First screening IR (inhibition rate)', 11),
  ('CC(=O)c1cccc(OCC(=O)Nc2nc3ccccc3[nH]2)c1 [Compound Z27665121]', 'First screening IR (inhibition rate)', -6),
  ('CCN(CC)C(=O)c1cc(-c2cc(C)oc2C)nc2c1cnn2C(C)C [Compound Z223881508]', 'First screening IR (inhibition rate)', -12),
  ('CCOc1ccc(-n2cc(-c3ccccc3)c3c(NCCO)ncnc32)cc1 [Compound Z57456164]', 'First screening IR (inhibition rate)', 20),
  ('CN(C)C(=O)Cc1ccccc1NCc1ccc(-n2ccnc2)cc1 [Compound Z1462566317]', 'First screening IR (inhibition rate)', 13),
  ('O=C(NC1CCS(=O)(=O)C1)c1nc(Cl)c(Cl)c(Cl)c1Cl (centres unmarked) [Compound Z118688092]', 'First screening IR (inhibition rate)', -7),
  ('CC(C)S(=O)(=O)CCS(=O)(=O)Cc1ccccc1 [Compound Z1347350572]', 'First screening IR (inhibition rate)', 2),
  ('N#C/C(=C(/O)CN1CCN(S(=O)(=O)c2ccccc2C#N)CC1)c1nc2ccccc2[nH]1 [Compound Z48805202]', 'First screening IR (inhibition rate)', -4);

[a] O=C(OCc1nc(-c2cccs2)no1)c1c(F)cccc1F [Compound Z51088101]
[b] O=C1Cc2cc(S(=O)(=O)N3CCCc4cccc(OC(F)F)c43)ccc2N1 [Compound Z815677014]
[c] Cl.Oc1ccccc1-c1cc(-c2ccccc2)c2cc(Cl)ccc2n1 [Compound Z48950876]
[d] O=C(CSc1ccc2c(c1)OCCCO2)Nc1ccc2c(c1)CCC2 [Compound Z18212324]
[e] COc1ccc(C)cc1C(C)NC(=O)CCc1nc2ccccc2[nH]1 (centres unmarked) [Compound Z197873940]
Inquiry: Order field: First screening IR (inhibition rate) | Direction: descending (largest first) # list labels per requested ordering
Reply text: e, d, a, c, b
(e: 60%, d: 14%, a: 8%, c: 3%, b: -4%)

[a] COc1ccc(OC)c(C2CCCN2C(=O)CSc2nnc(Nc3ccccc3C)s2)c1 (centres unmarked) [Compound Z96342510]
[b] Cc1ccc(C(CN2CCOCC2)NC(=O)Cn2cnc3sc(-c4ccccc4)cc3c2=O)cc1 (centres unmarked) [Compound Z146866146]
Inquiry: Looking only at measured First screening IR (inhibition rate), which entry is lower, a or b ? Answer by stating the label of the chosen item.
Reply text: b

The measurements presented in this section are drawn from paper PMC5607274.
